Experiment: Cytotoxicity against mouse RAW264.7 cells assessed as survival rate at 2.5 uM after 24 hrs by MTT assay
Format: cell-based
Details: read-out: Survival
Assignment: determine reported viability at 24 h, 2.5 µM for the given molecules.
Numbers only, in %.

Problem: # return recorded viability at 24 h, 2.5 µM for input O=C1c2cc(Cl)ccc2Oc2cc([N+](=O)[O-])ccc2N1c1ccc(Cl)cc1F
Result: 100

Each of the following entries comes with a recorded value; kindly state viability at 24 h, 2.5 µM for each.
1. O=C(Nc1ccc(Br)cc1F)c1cc(Br)ccc1O
2. O=C(Nc1ccc(I)cc1F)c1cc(F)ccc1O

Result:
[99.5, 100]

Each of the following entries comes with a recorded value; kindly state viability at 24 h, 2.5 µM for each.
1. O=C1c2cc(Br)ccc2Oc2cc([N+](=O)[O-])ccc2N1c1ccc(Br)cc1F
2. O=c1oc2ccc(Cl)cc2c(=O)n1-c1ccc(I)cc1F
3. O=C(Nc1ccc(Cl)cc1F)c1cc(Br)ccc1O
4. O=C(O)c1cc(Cl)ccc1O
5. O=C1c2cc(I)ccc2Oc2cc([N+](=O)[O-])ccc2N1c1ccc(Br)cc1F
6. O=c1oc2ccc(Cl)cc2c(=O)n1-c1ccc(Br)cc1F
7. O=c1oc2ccc(Br)cc2c(=O)n1-c1ccc(Cl)cc1F

Result:
[88.7, 95.5, 103, 113, 93.4, 114, 82.1]

Each of the following entries comes with a recorded value; kindly state viability at 24 h, 2.5 µM for each.
1. O=C1c2ccccc2Oc2cc([N+](=O)[O-])ccc2N1c1ccc(Cl)cc1F
2. O=C1c2cc(Br)ccc2Oc2cc([N+](=O)[O-])ccc2N1c1ccc(Cl)cc1F
3. O=c1oc2ccc(I)cc2c(=O)n1-c1ccc(Cl)cc1F

Result:
1: 103; 2: 102; 3: 117

----------
Test system: RAW264.7
Experiment: Cytotoxicity against mouse RAW264.7 cells assessed as reduction in cell viability at 5 uM after 24 hrs by MTT assay
Assay type: cell-based
Details: raw264.7, 24 h
readout.label: Activity

Problem: # return recorded Activity for input O=C(Nc1ccc(I)cc1F)c1cc(F)ccc1O
Result: Toxic

Problem: # return recorded Activity for input O=C(Nc1ccc(Cl)cc1F)c1cc(I)ccc1O
Result: Toxic

Problem: # return recorded Activity for input O=c1oc2ccc(I)cc2c(=O)n1-c1ccc(F)cc1F
Result: Toxic

----------
Assay: Cytotoxicity against mouse RAW264.7 cells assessed as reduction in cell viability after 24 hrs by MTT assay
Type: cell-based
// classify: if (CC50 at 24 h < 8 µM) true else false

Problem: Is CC50 at 24 h strictly under 8 µM for the entry O=C1c2cc(Cl)ccc2Oc2cc([N+](=O)[O-])ccc2N1c1ccc(F)cc1F ?
Result: false

Problem: Is CC50 at 24 h strictly under 8 µM for the entry O=c1oc2ccccc2c(=O)n1-c1ccc(Cl)cc1F ?
Result: false

Problem: Is CC50 at 24 h strictly under 8 µM for the entry O=C(Nc1ccc(Cl)cc1F)c1cc(I)ccc1O ?
Result: false

Problem: Is CC50 at 24 h strictly under 8 µM for the entry O=C(O)c1cc(Cl)ccc1O ?
Result: false

Kindly review the next molecule as well.
Problem: Is CC50 at 24 h strictly under 8 µM for the entry O=c1oc2ccc(F)cc2c(=O)n1-c1ccc(I)cc1F ?
Result: true

----------
Assay: Cytotoxicity against mouse RAW264.7 cells assessed as survival rate at 2.5 uM after 24 hrs by MTT assay
Type: cell-based
Conditions: read-out: Survival
Assignment: determine reported viability at 24 h, 2.5 µM for the given compounds.
One number for each entry, in %.

Each of the following entries comes with a recorded value; kindly state viability at 24 h, 2.5 µM for each.
1. O=C(Nc1ccc(F)cc1F)c1cc(Cl)ccc1O
2. O=c1oc2ccccc2c(=O)n1-c1ccc(I)cc1F
3. O=C(Nc1ccc(I)cc1F)c1cc(Br)ccc1O
4. O=C1c2cc(Cl)ccc2Oc2cc([N+](=O)[O-])ccc2N1c1ccc(F)cc1F
5. O=C1c2cc(Cl)ccc2Oc2cc([N+](=O)[O-])ccc2N1c1ccc(I)cc1F
6. O=C1c2cc(F)ccc2Oc2cc([N+](=O)[O-])ccc2N1c1ccc(I)cc1F

Result:
[109, 105, 99.6, 99.6, 89.3, 95.3]

----------
Assay: Cytotoxicity against mouse RAW264.7 cells assessed as survival rate at 2.5 uM after 24 hrs by MTT assay
Type: cell-based
Conditions: read-out: Survival
readout.label: viability at 24 h, 2.5 µM (%)
Answers are plain numbers, in %.

Please review the following examples before continuing.
Problem: # return recorded viability at 24 h, 2.5 µM for input O=C1c2cc(I)ccc2Oc2cc([N+](=O)[O-])ccc2N1c1ccc(I)cc1F
Result: 98.9

Problem: # return recorded viability at 24 h, 2.5 µM for input O=C1c2ccccc2Oc2cc([N+](=O)[O-])ccc2N1c1ccc(I)cc1F
Result: 87.2

Problem: # return recorded viability at 24 h, 2.5 µM for input O=c1oc2ccccc2c(=O)n1-c1ccc(Cl)cc1F
Result: 92.5

Problem: # return recorded viability at 24 h, 2.5 µM for input O=C1c2cc(Cl)ccc2Oc2cc([N+](=O)[O-])ccc2N1c1ccc(Br)cc1F
Result: 100

Problem: # return recorded viability at 24 h, 2.5 µM for input O=C1c2cc(Br)ccc2Oc2cc([N+](=O)[O-])ccc2N1c1ccc(F)cc1F
Result: 94

Each of the following entries comes with a recorded value; kindly state viability at 24 h, 2.5 µM for each.
1. O=C1c2cc(Br)ccc2Oc2cc([N+](=O)[O-])ccc2N1c1ccc(I)cc1F
2. O=C(O)c1cc(F)ccc1O
3. O=c1oc2ccc(Br)cc2c(=O)n1-c1ccc(F)cc1F
4. O=C(Nc1ccc(I)cc1F)c1cc(Cl)ccc1O

Result:
93.2
102
107
108

Each of the following entries comes with a recorded value; kindly state viability at 24 h, 2.5 µM for each.
1. O=C(Nc1ccc(I)cc1F)c1cc(I)ccc1O
2. O=c1oc2ccc(F)cc2c(=O)n1-c1ccc(Cl)cc1F

Result:
1. 94.2
2. 107

Each of the following entries comes with a recorded value; kindly state viability at 24 h, 2.5 µM for each.
1. O=c1oc2ccc(Cl)cc2c(=O)n1-c1ccc(Cl)cc1F
2. O=C(O)c1cc(I)ccc1O
3. O=c1oc2ccc(I)cc2c(=O)n1-c1ccc(I)cc1F
4. O=c1oc2ccc(Br)cc2c(=O)n1-c1ccc(Br)cc1F
5. O=C1c2cc(F)ccc2Oc2cc([N+](=O)[O-])ccc2N1c1ccc(Br)cc1F
6. O=C1c2cc(F)ccc2Oc2cc([N+](=O)[O-])ccc2N1c1ccc(Cl)cc1F
7. O=C(Nc1ccc(Cl)cc1F)c1cc(F)ccc1O
8. O=C(Nc1ccc(Br)cc1F)c1cc(Cl)ccc1O

Result:
99.4
98.9
107
103
98.8
91.2
99.5
106

Each of the following entries comes with a recorded value; kindly state viability at 24 h, 2.5 µM for each.
1. O=C(Nc1ccc(Cl)cc1F)c1cc(Cl)ccc1O
2. O=c1oc2ccc(Cl)cc2c(=O)n1-c1ccc(F)cc1F

Result:
109
116

----------
Assignment: determine reported Activity for the given compounds.
Test system: RAW264.7
Assay: Inhibition of RANKL-induced osteoclast differentiation in mouse RAW264.7 cells assessed as TRAP-positive multinucleated cells level at 2.5 uM incubated with compound in presence of RANKL for 4 days by TRAP staining based light microscopic analysis relative to RANKL alone
Format: functional
Set-up: scale not given: the % may be the effect or the level left
One number for each entry, in %.

Please review the following examples before continuing.
Problem: # return recorded Activity for input O=c1oc2ccc(Cl)cc2c(=O)n1-c1ccc(Br)cc1F
Result: 45.5

Problem: # return recorded Activity for input O=C(Nc1ccc(Cl)cc1F)c1cc(Br)ccc1O
Result: 39.6

Problem: # return recorded Activity for input O=C1c2cc(Br)ccc2Oc2cc([N+](=O)[O-])ccc2N1c1ccc(I)cc1F
Result: 78.1

Problem: # return recorded Activity for input O=c1oc2ccc(I)cc2c(=O)n1-c1ccc(I)cc1F
Result: 36.1

Problem: # return recorded Activity for input O=C1c2cc(F)ccc2Oc2cc([N+](=O)[O-])ccc2N1c1ccc(Cl)cc1F
Result: 93.1

Problem: # return recorded Activity for input O=C(Nc1ccc(Br)cc1F)c1cc(Cl)ccc1O
Result: 23.3

Problem: # return recorded Activity for input O=C(Nc1ccc(Cl)cc1F)c1cc(I)ccc1O
Result: 26.1

Problem: # return recorded Activity for input O=C1c2cc(Br)ccc2Oc2cc([N+](=O)[O-])ccc2N1c1ccc(Cl)cc1F
Result: 67.1

Problem: # return recorded Activity for input O=C(Nc1ccc(Cl)cc1F)c1cc(Cl)ccc1O
Result: 15.8

Problem: # return recorded Activity for input O=C(Nc1ccc(Br)cc1F)c1cc(Br)ccc1O
Result: 33.1

Each of the following entries comes with a recorded value; kindly state Activity for each.
1. O=C(O)c1cc(I)ccc1O
2. O=C1c2cc(Cl)ccc2Oc2cc([N+](=O)[O-])ccc2N1c1ccc(Cl)cc1F
3. O=C1c2cc(F)ccc2Oc2cc([N+](=O)[O-])ccc2N1c1ccc(Br)cc1F
4. O=C1c2cc(F)ccc2Oc2cc([N+](=O)[O-])ccc2N1c1ccc(I)cc1F
5. O=c1oc2ccc(I)cc2c(=O)n1-c1ccc(Br)cc1F
6. O=C(Nc1ccc(I)cc1F)c1cc(Cl)ccc1O
7. O=C(O)c1cc(Cl)ccc1O
8. O=C1c2cc(I)ccc2Oc2cc([N+](=O)[O-])ccc2N1c1ccc(F)cc1F

Result:
90.5
59.4
88.7
85.3
58.2
2.9
96.6
85.4

Each of the following entries comes with a recorded value; kindly state Activity for each.
1. O=C(O)c1cc(Br)ccc1O
2. O=c1oc2ccc(F)cc2c(=O)n1-c1ccc(Br)cc1F
3. O=C(Nc1ccc(I)cc1F)c1cc(I)ccc1O
4. O=c1oc2ccc(F)cc2c(=O)n1-c1ccc(I)cc1F
5. O=C(Nc1ccc(Cl)cc1F)c1cc(F)ccc1O
6. O=c1oc2ccc(Cl)cc2c(=O)n1-c1ccc(I)cc1F

Result:
1. 96.5
2. 25.5
3. 35.1
4. 13.9
5. 27.1
6. 19.1

FYI, the data here is from ChEMBL document CHEMBL3808275.
